Ref: ChEMBL document CHEMBL5329156

- Test system: HEK293
- assay.summary: Cytotoxicity against human HEK-293 cells assessed as reduction in cell viability at 31.3 microg/ml
- Type: toxicity, cell-based
- test.conditions: dose 31.3 µg/ml
recorded.metric: Activity

- O=C(NNc1cccc(Cl)c1)c1ccccn1: Non-Toxic
- O=C(NNc1ccc(F)cc1)c1ccccn1: Non-Toxic
- COc1ccc(NNC(=O)c2cnccn2)cc1: Non-Toxic

* * *

- Tested on: [Candida] auris
- assay.summary: Antifungal activity against Candida auris AR Bank # 386 assessed as fungal growth inhibition by double dilution method
- Type: functional
- test.conditions: Candidozyma auris
recorded.metric: MIC (µg/mL)
Numbers only here, please. The scale is µg/mL.

Could you share what MIC was measured for "COc1cccc(NNC(=O)c2ccccn2)c1" , tested on [Candida] auris?
0.49

How about "O=C(NNc1ccc(Cl)cc1)c1ccccn1" ?
0.98

Another compound to look at: "O=C(NNc1cccc(Cl)c1)c1ccccn1"
0.24

* * *

Could you please report measured MIC for the items listed next?
- System: [Candida] auris
- assay.summary: Antifungal activity against Candida auris AR Bank # 383 assessed as fungal growth inhibition by double dilution method
- Type: functional
- test.conditions: Candidozyma auris
Give the value in µg/mL but do not write µg/mL after it.

What reported MIC corresponds to "O=C(NNc1ccc(Cl)cc1)c1ccccn1" on [Candida] auris?
1.95

Query "O=C(NNc1cccc(Cl)c1)c1ccccn1" next
0.49

Record: "O=C(NNc1ccc(F)cc1F)c1cnccn1"
0.98

Please do the same for "COc1cccc(NNC(=O)c2cnccn2)c1" as well.
1.95

Next: "O=C(NNc1cc(F)cc(F)c1)c1ccccn1"
0.24

* * *

Please provide measured MIC for the entries that follow.
- System: Nakaseomyces glabratus
- assay.summary: Antifungal activity against Candida glabrata ATCC 2001 assessed as fungal growth inhibition by double dilution method
- Format: functional
Give the quantity in µg/mL, number only.

Form: Entry = "COc1cccc(NNC(=O)c2ccc(F)cn2)c1" | System = Nakaseomyces glabratus | MIC = ____
15.6

Subsequent entry: "O=C(NNc1ccc(F)cc1)c1ccccn1"
1.95

Same again, this time with "O=C(NNc1ccc(F)cc1F)c1ccccn1"
0.98

What do you have for "O=C(NNc1ccc(F)cc1)c1ccc(F)cc1F" ?
7.8

Please answer likewise for "O=C(NNc1cccc(Cl)c1)c1ccccn1"
1.95

Also need "COc1cccc(NNC(=O)c2ccccn2)c1" , thanks.
15.6

Repeat with "O=C(NNc1cccc(F)c1)c1ccc(F)cc1F"
7.8

How about "O=C(NNc1cccc(F)c1)c1ccc(F)cn1" ?
31.3

Record: "COc1cccc(NNC(=O)c2cccc(Br)n2)c1"
7.8

Again, but for "COc1cccc(NNC(=O)c2cnccn2)c1"
7.8

Then this compound: "O=C(NNc1cccc(F)c1)c1cnccn1"
7.8

Same question for "C[C@@H]1[C@H](O)[C@@H](C)/C=C/C=C/C=C/C=C/C=C/C=C/C=C/[C@H](O[C@@H]2O[C@H](C)[C@@H](O)[C@H](N)[C@@H]2O)C[C@@H]2O[C@](O)(C[C@@H](O)C[C@@H](O)[C@H](O)CC[C@@H](O)C[C@@H](O)CC(=O)O[C@H]1C)C[C@H](O)[C@H]2C(=O)O" please.
0.98

Here is the next compound: "COc1ccc(NNC(=O)c2ccc(F)cn2)cc1"
1.95

Follow-up item: "O=C(NNc1cc(F)ccc1F)c1ccccn1"
3.9

Same thing, different compound: "COc1ccc(NNC(=O)c2ncc(F)cc2F)cc1"
7.8

Same question for "O=C(NNc1ccc(F)cc1F)c1cnccn1" please.
0.98

Now consider "O=C(NNc1cccc(F)c1)c1nc(F)ccc1F" and answer again.
15.6
